Hey, just so you know, these numbers are from ChEMBL document CHEMBL1201862.

Listing: GI50 of selected compounds
test system: U-251; assay: NCI tumour cell line growth inhibition, 48 h
Activity calls are given as the source filed them. Cut-off read from the data, not from the text of the source: active = GI50 up to about 1.1 µM and inactive = higher.

Examples from the recorded data:
>  <compound>
OC(CC(O)(C(F)(F)F)C(F)(F)F)c1ccc(C(O)CC(O)(C(F)(F)F)C(F)(F)F)cc1 (stereo not given)

>  <readout.kind>
GI50

>  <data.value>
16.4 µM (inactive)

$$$$
>  <compound>
N/C(=N\N/C=C1\C=Nc2cc(C(F)(F)F)ccc2C1=O)NO

>  <readout.kind>
GI50

>  <data.value>
> 10 µM (inactive)

$$$$

Enquiry: Please look at this compound and report its GI50: Cc1ccc(/N=N/C(C(=O)c2ccccc2)C(=O)c2ccccc2)cc1
Return: 18 µM (inactive)

Enquiry: Could you please provide reported GI50 for Cc1cc2c(cc1C)[n+]([O-])c(C(=O)CC(=O)C(=O)Nc1ccccc1C(C)C)c(C)[n+]2[O-] ? Thanks!
Return: > 100 µM (inactive)

Enquiry: Indicate the recorded GI50 value for this compound: COc1ccccc1N1C(=O)/C(=C\c2cc(OC)c(OC)c(OC)c2)SC1c1ccccc1 (stereo not given)
Return: 24.4 µM (inactive)
